target: ATP6V0D1 (V-ATPase V0 domain subunit d1) (Homo sapiens); assay: SPR
Sequence (P61421 whole entry, the tested form may be a part): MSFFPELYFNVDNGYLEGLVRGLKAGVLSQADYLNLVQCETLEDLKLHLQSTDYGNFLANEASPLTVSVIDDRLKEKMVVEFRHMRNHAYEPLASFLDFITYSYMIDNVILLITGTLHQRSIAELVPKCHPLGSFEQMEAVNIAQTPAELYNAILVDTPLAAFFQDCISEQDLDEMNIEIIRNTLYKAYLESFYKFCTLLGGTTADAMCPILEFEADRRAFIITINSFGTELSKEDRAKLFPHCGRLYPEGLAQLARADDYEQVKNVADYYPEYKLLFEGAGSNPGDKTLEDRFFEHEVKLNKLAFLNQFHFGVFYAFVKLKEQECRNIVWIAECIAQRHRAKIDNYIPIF
pKd: −log10 of the molar value.
metric: pKd

COc1cc2c(c(OC)c1OC)-c1c(cc(OC)c(OC)c1OC)C[C@](C)(O)[C@@H](C)C2 :: 5.70

Just for reference, paper PMC9532558 is where these values come from.
